- test_system: SST2 (Homo sapiens)
- Sequence (P30874 whole entry): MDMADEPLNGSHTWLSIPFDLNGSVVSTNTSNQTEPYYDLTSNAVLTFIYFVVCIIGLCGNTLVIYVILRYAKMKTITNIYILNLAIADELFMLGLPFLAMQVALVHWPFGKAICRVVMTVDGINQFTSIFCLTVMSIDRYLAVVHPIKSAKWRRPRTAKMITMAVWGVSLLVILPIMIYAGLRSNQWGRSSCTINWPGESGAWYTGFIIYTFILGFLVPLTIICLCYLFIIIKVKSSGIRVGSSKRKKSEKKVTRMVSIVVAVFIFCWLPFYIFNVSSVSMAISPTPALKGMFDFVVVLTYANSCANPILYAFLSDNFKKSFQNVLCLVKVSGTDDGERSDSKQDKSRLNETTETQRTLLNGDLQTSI
- assay_summary: Hit Hunter cAMP XS+ assay, SST2 activation via Gi (reduction of forskolin-stimulated cAMP)
- Format: cell-based
- stated_conditions: reduction of forskolin-stimulated cAMP; 4-parameter logistic fit; read-out: SST2 pEC50 (converted)
*1 amine or outer side, *2 acyl side, *3 side chain or, on linkers, in order; H or OH if unused. Where a SMILES comes first, the peptide text is derived from it. Side-chain parts run from the residue outwards. [ ]: non-standard residue; d: D form. The star is where a group is joined. Ala(piperidin-4-yl) = O=C([C@H](CC1CCN([*:3])CC1)N[*:1])[*:2]; Ala(piperazin-1-yl) = N[C@@H](CN1CCNCC1)C(=O)O; Ethylenediamine = C(CN[*:2])N[*:1]; Hyp = O=C(O)[C@@H]1C[C@@H](O)CN1; hPhe = N[C@@H](CCc1ccccc1)C(=O)O; Tic = O=C(O)[C@@H]1Cc2ccccc2CN1; X3 = CN[C@H]1CCN(*)C1; CO = O=C([*:1])[*:2]; Bn = c1ccc(C*)cc1
value_type: EC50 (nM)
Report only the number, with the unit nM understood.

Example compounds with recorded EC50:
CN[C@H]1CCN(C(=O)O[C@@H]2C[C@H]3C(=O)N[C@@H](CCc4ccccc4)C(=O)N[C@H](Cc4c[nH]c5ccccc45)C(=O)N[C@@H](CC4CCNCC4)C(=O)N[C@@H](Cc4ccc(OCc5ccccc5)cc4)C(=O)N4Cc5ccccc5C[C@H]4C(=O)N3C2)C1 [Example 78] (cyclo([Hyp]([CO-X3])[hPhe][dW][Ala(piperidin-4-yl)]Y(Bn)[Tic])) :: 3160
NCCNC(=O)O[C@@H]1C[C@H]2C(=O)N[C@@H](CCc3ccccc3)C(=O)N[C@@H](Cc3c[nH]c4ccccc34)C(=O)N[C@@H](CC3CCNCC3)C(=O)N[C@@H](Cc3ccc(OCc4ccccc4)cc3)C(=O)N3Cc4ccccc4C[C@H]3C(=O)N2C1 [Example 19] (cyclo([Hyp]([CO-Ethylenediamine])[hPhe]W[Ala(piperidin-4-yl)]Y(Bn)[Tic])) :: 100

Kindly consider the entry below.
Lab entry: SST2 (Homo sapiens) assay, compound NCCNC(=O)O[C@@H]1C[C@H]2C(=O)N[C@@H](CCc3ccccc3)C(=O)N[C@@H](Cc3c[nH]c4ccccc34)C(=O)N[C@@H](CN3CCNCC3)C(=O)N[C@@H](Cc3ccc(OCc4ccccc4)cc3)C(=O)N3Cc4ccccc4C[C@H]3C(=O)N2C1 [Example 36] (cyclo([Hyp]([CO-Ethylenediamine])[hPhe]W[Ala(piperazin-1-yl)]Y(Bn)[Tic])) , EC50 = 501

###

# EC50 values compiled below
- test_system: SST2 (Homo sapiens)
- assay_summary: Hit Hunter cAMP XS+ assay, SST2 activation via Gi (reduction of forskolin-stimulated cAMP)
- Type: cell-based
- stated_conditions: reduction of forskolin-stimulated cAMP; 4-parameter logistic fit; read-out: SST2 pEC50 (converted)
*1 amine or outer side, *2 acyl side, *3 side chain or, on linkers, in order; H or OH if unused. Where a SMILES comes first, the peptide text is derived from it. Side-chain parts run from the residue outwards. [ ]: non-standard residue; d: D form. The star is where a group is joined. Ala(piperidin-4-yl) = O=C([C@H](CC1CCN([*:3])CC1)N[*:1])[*:2]; Ala(piperazin-1-yl) = N[C@@H](CN1CCNCC1)C(=O)O; Phe(4-Cl) = N[C@@H](Cc1ccc(Cl)cc1)C(=O)O; Morpholine(3S-CO) = O=C(O)[C@@H]1COCCN1; Ethylenediamine = C(CN[*:2])N[*:1]; d(hPhe) = N[C@H](CCc1ccccc1)C(=O)O; Hyp = O=C(O)[C@@H]1C[C@@H](O)CN1; hPhe = N[C@@H](CCc1ccccc1)C(=O)O; 3Pal = N[C@@H](Cc1cccnc1)C(=O)O; Cyclohexylmethyl = C1CCC(C*)CC1; Tic = O=C(O)[C@@H]1Cc2ccccc2CN1; Benzyl(4-Cl) = Clc1ccc(C*)cc1; CO = O=C([*:1])[*:2]; Bn = c1ccc(C*)cc1; X4 = C1CC(C*)C1
Report only the number, with the unit µM understood.

Example compounds with recorded EC50:
NCCNC(=O)O[C@@H]1C[C@H]2C(=O)N[C@H](CCc3ccccc3)C(=O)N[C@H](Cc3c[nH]c4ccccc34)C(=O)N[C@@H](CN3CCNCC3)C(=O)N[C@@H](Cc3ccc(OCc4ccccc4)cc3)C(=O)N[C@@H](Cc3ccc(Cl)cc3)C(=O)N2C1 [Example 30] (cyclo([Hyp]([CO-Ethylenediamine])[d(hPhe)][dW][Ala(piperazin-1-yl)]Y(Bn)[Phe(4-Cl)])) :: 0.251
NCCNC(=O)O[C@@H]1C[C@H]2C(=O)N[C@@H](CCc3ccccc3)C(=O)N[C@H](Cc3c[nH]c4ccccc34)C(=O)N[C@@H](CC3CCNCC3)C(=O)N[C@@H](Cc3ccc(OCC4CCC4)cc3)C(=O)N[C@@H](Cc3cccnc3)C(=O)N2C1 [Example 50] (cyclo([3Pal][Hyp]([CO-Ethylenediamine])[hPhe][dW][Ala(piperidin-4-yl)]Y(X4))) :: 0.631
NCCNC(=O)O[C@@H]1C[C@H]2C(=O)N[C@@H](CCc3ccccc3)C(=O)N[C@H](Cc3c[nH]c4ccccc34)C(=O)N[C@@H](CN3CCNCC3)C(=O)N[C@@H](Cc3ccc(OCC4CCCCC4)cc3)C(=O)N[C@@H](Cc3cccnc3)C(=O)N2C1 [Example 52] (cyclo([3Pal][Hyp]([CO-Ethylenediamine])[hPhe][dW][Ala(piperazin-1-yl)]Y(Cyclohexylmethyl))) :: 0.398
NCCNC(=O)O[C@@H]1C[C@H]2C(=O)N[C@@H](CCc3ccccc3)C(=O)N[C@H](Cc3c[nH]c4ccccc34)C(=O)N[C@@H](CN3CCNCC3)C(=O)N[C@@H](Cc3ccc(OCc4ccccc4)cc3)C(=O)N3CCC[C@H]3C(=O)N2C1 [Example 37] (cyclo([Hyp]([CO-Ethylenediamine])[hPhe][dW][Ala(piperazin-1-yl)]Y(Bn)P)) :: 6.31
NCCNC(=O)O[C@@H]1C[C@H]2C(=O)N[C@@H](CCc3ccccc3)C(=O)N[C@H](Cc3c[nH]c4ccccc34)C(=O)N[C@@H](CC3CCNCC3)C(=O)N[C@@H](Cc3ccc(OCc4ccc(Cl)cc4)cc3)C(=O)N[C@@H](Cc3cccnc3)C(=O)N2C1 [Example 40] (cyclo([3Pal][Hyp]([CO-Ethylenediamine])[hPhe][dW][Ala(piperidin-4-yl)]Y(Benzyl(4-Cl)))) :: 0.316

Kindly consider the entry below.
Note to self: EC50 recorded for O=C1N[C@@H](Cc2ccc(OCc3ccccc3)cc2)C(=O)N2Cc3ccccc3C[C@H]2C(=O)N2CCOC[C@H]2C(=O)N[C@@H](CCc2ccccc2)C(=O)N[C@H](Cc2c[nH]c3ccccc23)C(=O)N[C@H]1CC1CCNCC1 [Example 45] (cyclo([Tic][Morpholine(3S-CO)][hPhe][dW][Ala(piperidin-4-yl)]Y(Bn))) was 0.158
